Origin of values: patent US8093389B2

# assayed.target: UniProt:Q13085
# measurement.notes: Acetyl CoA carboxylase (ACC) activity inhibition test, human ACC1
# Format: biochemical
# reported.conditions: 1 μmol/liter test compound; read-out: Inhibition (%) by 1 μmol/liter Chemical, human ACC1
Parameter inhibition at 1 µM: see the listing below.
readout.kind: inhibition at 1 µM (%)

>>> numeric_result("COc1cc(C(=O)N2CCC3(CC2)CC(=O)c2cc(-c4noc(=O)[nH]4)ccc2O3)cc2c1ccn2C1CC1 [Example 3]")
100
>>> numeric_result("COc1cc(C(=O)N2CCC3(CC2)CC(=O)c2cc(-c4nnn[nH]4)ccc2O3)cc2c1ccn2C1CC1 [Example 11]")
99
>>> numeric_result("COc1cc(C(=O)N2CCC3(CC2)CC(=O)c2cc(-c4nnc(C(N)=O)[nH]4)ccc2O3)cc2c1ccn2C1CC1 [Example 57]")
99
>>> numeric_result("COc1cc(C(=O)N2CCC3(CC2)CC(=O)c2cc(-c4nnn[nH]4)ccc2O3)cn2c(C3CC3)cnc12 [Example 2]")
93
